# ASSAYED_SYSTEM: Metabotropic glutamate receptor 5 (Homo sapiens)
# Sequence (P41594 whole entry): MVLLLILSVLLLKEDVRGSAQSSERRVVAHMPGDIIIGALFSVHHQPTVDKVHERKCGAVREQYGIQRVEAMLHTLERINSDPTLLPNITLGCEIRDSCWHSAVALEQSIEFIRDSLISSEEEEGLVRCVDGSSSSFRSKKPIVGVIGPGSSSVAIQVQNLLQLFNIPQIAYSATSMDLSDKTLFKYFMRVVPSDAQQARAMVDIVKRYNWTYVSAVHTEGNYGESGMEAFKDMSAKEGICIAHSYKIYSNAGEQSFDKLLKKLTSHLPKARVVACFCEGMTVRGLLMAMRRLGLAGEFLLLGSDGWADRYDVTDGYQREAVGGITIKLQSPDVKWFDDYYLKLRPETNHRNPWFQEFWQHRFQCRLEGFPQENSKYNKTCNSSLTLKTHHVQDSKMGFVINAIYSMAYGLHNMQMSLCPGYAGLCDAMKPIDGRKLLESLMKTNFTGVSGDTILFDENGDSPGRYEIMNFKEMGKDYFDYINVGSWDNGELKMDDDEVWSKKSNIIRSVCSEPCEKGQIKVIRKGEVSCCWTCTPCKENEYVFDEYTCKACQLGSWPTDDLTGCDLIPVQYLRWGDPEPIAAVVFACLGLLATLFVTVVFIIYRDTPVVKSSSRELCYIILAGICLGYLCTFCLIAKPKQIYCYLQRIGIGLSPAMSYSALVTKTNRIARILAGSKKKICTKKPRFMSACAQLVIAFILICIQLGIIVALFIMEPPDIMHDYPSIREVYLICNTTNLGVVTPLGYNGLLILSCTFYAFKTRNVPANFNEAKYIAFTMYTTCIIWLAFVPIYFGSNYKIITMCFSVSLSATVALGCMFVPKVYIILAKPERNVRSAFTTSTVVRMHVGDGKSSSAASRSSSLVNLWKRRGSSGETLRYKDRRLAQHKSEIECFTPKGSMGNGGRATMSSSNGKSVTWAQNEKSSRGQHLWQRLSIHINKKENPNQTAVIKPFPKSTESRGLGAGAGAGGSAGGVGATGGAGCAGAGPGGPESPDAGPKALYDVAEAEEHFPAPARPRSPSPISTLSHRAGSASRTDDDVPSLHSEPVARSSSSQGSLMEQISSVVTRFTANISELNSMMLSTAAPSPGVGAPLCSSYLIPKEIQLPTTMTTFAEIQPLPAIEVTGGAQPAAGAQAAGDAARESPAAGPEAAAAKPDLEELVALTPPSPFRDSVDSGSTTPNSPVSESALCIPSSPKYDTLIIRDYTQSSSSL
# TEST_PROTOCOL: Negative allosteric modulation of human mGlu5R expressed in Trex293 cells assessed as decrease in glutamate-induced calcium mobilization preincubated for 2.3 mins followed by glutamate addition and measured after 2.6 mins by Fluo-4-AM dye based fluorescence assay
# Format: functional, cell-based
Reported IC50 is given for each of the following molecules.

NC(=O)c1cc(-c2ccc(F)cc2)n2nc(COc3ccnc(C(F)(F)F)c3)cc2n1; > 30 µM

Sample C[C@@H]1CN(Cc2cc3nc(C(N)=O)cc(-c4ccc(F)cc4)c3s2)C[C@H](C)O1 ; IC50 observed: > 30 µM
